Where these numbers come from: PubChem BioAssay (NCI)

Assay: NCI Yeast Anticancer Drug Screen. Data for the sgs1 mgt1 strain (AID 161)
Conditions: S. cerevisiae sgs1 mgt1 strain, at 50.0 µM, stronger effect = higher value
Compounds without any hit were thinned out: in the full panel of roughly 79,000, 15% have a hit.
Would you mind labelling by growth inhibition? At or over 40% is Criterion met, under is Criterion not met.

The examples below pair each entry with its known result.
compound	answer.label
Cc1ccccc1NC(=O)C1C(=O)N(c2ccccc2C)C(=O)/C1=N/O (centres undefined)	Criterion not met
Cc1ccc(S(=O)(=O)N/N=C/Cc2ccccc2)cc1	Criterion met
COc1ccc(/C=C2/C(=O)ON=C2C)cc1OC	Criterion met
CN1C/C(=C\c2ccccc2)C(=O)/C(=C/c2ccccc2)C1	Criterion not met
Cc1cc(NC(=S)SCc2ccc(Cl)cc2)ccc1Br	Criterion met

Asked: Please check the record CCCCCCCCCCCCC1N=C(N)N2CCCC2=C1C(=O)OC (centres undefined) and state if its growth inhibition is at or above 40%.
Given back: Criterion met

Asked: Please check the record `Nc1nn2c(C(Br)Br)cc(C(Br)Br)nc2c1[N+](=O)[O-]` and state if its growth inhibition is at or above 40%.
Given back: Criterion met

Asked: Please check the record CCSSC12CCCN1C(=O)C(C)N(C)C2=O (centres undefined) and state if its growth inhibition is at or above 40%.
Given back: Criterion not met

Asked: Please check the record `COC(=O)[C@@H](O)[C@]1(C(=O)OC)C2O[C@@H](OC)[C@@H]1CCCCCC[C@H]2O` and state if its growth inhibition is at or above 40%.
Given back: Criterion not met

Asked: Please check the record COC1/C=C\C=C(/C)C(=O)NC2=CC(=O)C(N)=C(CC(C)CC(OC)C(O)C(C)C=C(C)C1OC(N)=O)C2=O (centres undefined) and state if its growth inhibition is at or above 40%.
Given back: Criterion met

Asked: Please check the record `CC(=O)OCc1cc2ccccc2nc1C(Br)(Br)Br` and state if its growth inhibition is at or above 40%.
Given back: Criterion met

Asked: Please check the record `C=CCNC(=S)N/N=C(/c1ccccn1)C(C)C` and state if its growth inhibition is at or above 40%.
Given back: Criterion met

Asked: Please check the record `COC(=O)c1ccc(CCc2cc(O)ccc2O)cc1` and state if its growth inhibition is at or above 40%.
Given back: Criterion met

Asked: Please check the record `O=[N+]([O-])c1c(Br)ncn1Cc1ccccc1` and state if its growth inhibition is at or above 40%.
Given back: Criterion not met

Asked: Please check the record N#Cc1ccccc1NC1OCC(O)C(O)C1O (centres undefined) and state if its growth inhibition is at or above 40%.
Given back: Criterion not met

Asked: Please check the record Clc1ccc(C2NC(c3ccccc3)c3c(ccc4ccccc34)O2)cc1 (centres undefined) and state if its growth inhibition is at or above 40%.
Given back: Criterion not met

Asked: Please check the record `CCCCCCCCCCCCNC(=O)c1cc[n+](Cc2ccc(Cl)c(Cl)c2)cc1` and state if its growth inhibition is at or above 40%.
Given back: Criterion met

Asked: Please check the record `[O-][n+]1c2ccccc2nc2cc(Cl)ccc21` and state if its growth inhibition is at or above 40%.
Given back: Criterion met
